system: MS2 coat protein; experiment: apparent KD of MS2 coat protein; designed switch direction (-1 OFF switch, 1 ON switch): 1; higher = weaker reporter binding; settings: input ligand: microRNA oligo, concentration not stated
Reported apparent KD of MS2 coat protein values follow for various sequences
The reply should contain only the number, in nM.

apparent KD of MS2 coat protein reported for this sequence GGUAAGAAUUAAGGAUAUUGAAUACAUAUGUUUAACAUGAGGAUCACCCAUGUGGGUUGCGGUGUCGAGAAGGUAAAUUAAUAG [Mat - same State NG 2 - JL mod - D100] (Eterna round: R96, puzzle: Same State NG 2) : 166

Lab note: AAACAGUCGCUGCGGCGACCACAUGAGGAUCACCCAUGUACAUAGGAUAUCGCCUAAAAUACUGGCGAGAAGGGUGAUUAAAGA [Vegeonor] (Eterna round: R96, puzzle: Same State NG 3) gave apparent KD of MS2 coat protein of 12.4

----------
system: MS2 coat protein; assay: apparent KD of MS2 coat protein; designed switch direction (-1 OFF switch, 1 ON switch): 1; higher = weaker reporter binding; conditions: Eterna round: R95; input ligand: microRNA oligo, concentration not stated
Readings of apparent KD of MS2 coat protein for the listed sequences
Unit µM implied. Number only.

Looking up AAGUGAUGGGUUAGUAACUGCUAGUAAGGACAUGAGGAUCACCCAUGUGAGUAACGAGCUUUUGCUCGUCUUAUAAA [JR_SHM208A_Sub020] (puzzle: Sensor for hsa-mir-208a) , I found its apparent KD of MS2 coat protein recorded as 0.0489

----------
tested on: K4 kissing-loop RNA reporter; test: apparent KD of K4 kissing-loop reporter; higher = weaker reporter binding; conditions: Eterna round: R107; input ligand: tryptophan 2.4 mM
This listing pairs sequences with measured apparent KD of K4 kissing-loop reporter.
Write the value in nM as a bare number.

Examples with answers:
residues	scale_unit	apparent KD of K4 kissing-loop reporter
CAUACGCAUGGAGGAUAUGAGAUUACUCAUAUCAUUUAAUAUUCUCAGUGAUGUUGAGAUUUAAACUCAGAAGGCCAUGUGUAUG [Ex FMN B 12]	nM	380
CCGGGCGGCUGAAGGAGCGGGCGGGCCCGAGUGAUGUUCGGGUGGGCCGUGAGGUCCGGUGCCCAGGUAGGUCGCGGUUCCGCCC [#2 Same State - Arginine B Attempt #10 (HarryS)]	nM	164
GUAGACGUACCUUCAGUGAUGUUGAAGGAUACCAGAUGUUACCACAUCCCUUGGCAGCCUUGGGAUAACAGUGAGUCGGAAUAUG [Uslediti]	nM	142
AUAAACUUGCAGUGAUGUUGCAAGUGAGACUAGGAUAUCAGGAAGCUGAGAAGGAGUCAUCUCCUUCAGACAUCACUAUGAAGGA [whbob_SS_FMNA__2th179]	nM	232
AGGAAGUGAGAAGGAUAUUACACUCGGAAGCGCUAGUGAUGUUAGCAUAGAAACAAGGGAACAUGGUAAGAAGGUCUUACAAUGA [theeternabot_sameState_KL_FMN_B_2]	nM	40.1

Lab note: AUUCUAUUGUGAAGGAGCGCGUAUAGUAGUGAUGUUACUAUAAUGAUAGAUACUUAAUUCUCGCAGGUAGGUCGCACAAUAUAUA [JR_Nu_ExcArginiB_Sub024] gave apparent KD of K4 kissing-loop reporter of 89.8

Lab note: UUGGAGUGAUGUUCCAUAUCUUGAGCGGAAGGAGCGGCAAAAGUGCCAGGUAGGUCGCCGCAGAAGGUACCAGUGAUGUUGGAAA [Same State Arginine A GF 3] gave apparent KD of K4 kissing-loop reporter of 109

Lookup result for AGUGAAGUUAGUGAUGUGUGAGUUUGGGAAGGAGCGCCGAGAACGGCAGGUAGGUCGCCCAGUGAUGUUGGUGUAAAGAUGAGAG [whbob_Ex_Arginine_A_2t121] ; measured apparent KD of K4 kissing-loop reporter: 208

----------
Reported values of apparent KD of K4 kissing-loop reporter for individual entries
test system: K4 kissing-loop RNA reporter; test: apparent KD of K4 kissing-loop reporter; higher = weaker reporter binding; conditions: Eterna round: R107; input ligand: tryptophan 2.4 mM;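 note: bound reporter read as fluorescence of individual clusters on recovered sequencing chips by microscopy, with normalized cluster intensities fitted with a binding model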
The reply should be a number in nM, with the unit left off.

residues	target	apparent KD of K4 kissing-loop reporter [nM]
GGGAAGUACGGAGGAUAUGCACUGAGGAGGAGAAUAUAGUGAUGUUAUAUAAGAGGAAGGAGAAGAGUAGAAGGCCGUGGAAAGG [SSFMNB.C]	K4 kissing-loop RNA reporter	117
GCCAUCAGGUCGCAAGACCUGAUAGCCGAUACCAGCGCGAAGGUGCGCCCUUGGCAGCGGCACCGAGUGAUGUUCGGUCAGGCGG [#2 Same State - Theophylline A Attempt #3 (HarryS)]	K4 kissing-loop RNA reporter	554
UGUCAUUGGUCGGCCGCCACUUCAAAAGGUCAAAGACCAGAGUGAUGUUCUUCACGAAACGUGAGAAGGACCGGGACCGAUGACU [TrypBS 12 #SwitchBubble #K4Middle]	K4 kissing-loop RNA reporter	638
GAGUGGCAGACGGCCGCCACUCUUAGCAGCCAGCGGAGUGAUGUUCCGCCCGAGUGAUGUUCGGAGAGGACCGGGUUUGUUGUAA [Exclusion Tryptophan B GF 29]	K4 kissing-loop RNA reporter	125
AAUUUAUUAACUGAUACCAGACUUAAUAAAUUUUAAAUCACUAGUGAUGUUAGUGAAUAUGUCCCUUGGCAGCAGUAUUUAUUAA [JR_SSTheophyB_Sub023]	K4 kissing-loop RNA reporter	115

apparent KD of K4 kissing-loop reporter in this record for UUUGUAUCGGGAAGGAGCGUGAAUGAUAAUGGAUAUAGUGAUGUUAUAUAUAAGAACGAAUCGCAGGUAGGUCGCCCGGAUGACU [SSArgB.Q] : 252

response.value for UGUCAUUGGUCGGCCGCCACUUCGUGUAGAGUGAUGUUUUGUAGGACGGAUCGAAAGAUCUGUCGAAGGACCGGGACCGAUGACU [FiskerMod 18 - Jieux - Same State - Tryptophan B] (field: apparent KD of K4 kissing-loop reporter) = 1100

Recorded result, CCGAUGGGUACAGGAUAUGCCAGUGAUGUUGGUUUAGAUGGACCCAUAAGGAGACACCAGACGGAGGCAGAAGGGUAGCAAGGGA [Isonanti] , apparent KD of K4 kissing-loop reporter: 120

// GCCGUAGAUUGAAGGAGCGUUCUUCAGCAAACUUGCAGUGAUGUUGCAUUAAACAUGUAAGAACAGGUAGGUCGCAAUCUACGGC : apparent KD of K4 kissing-loop reporter value = 121

For reference, reported apparent KD of K4 kissing-loop reporter for GCAGUGAUGUUGCGGAUGUACAGUGGGAUACGAGGACCGGUACGGCCGCCACUCGUACAGAACAAGCUAAUACAUCGAUAGGUGA [XII] stands at 301

Noted for AGGAUCCGUCGACAAAAGUCGACAUAAACCAAGGAUAUGACGAAAGUCAGAAGGUGGUCAUAAGGCCAGUGAUGUUGGUGGAUCC [FmnA 12 #SwitchBubble #K4Late] : its apparent KD of K4 kissing-loop reporter reads 349

get_value(item= UAUUAAUUGUCAGGAUAUCGUAUUCGAGUGAUGUUCGUAUAUCGACGAUAGUCGAUAUUAUUUAUACGAGAAGGGACAUUAUUUA [JR_SSFMNB_Sub005] , readout=apparent KD of K4 kissing-loop reporter) returns 285

----------
Each entry below lists one item and its recorded apparent KD of MS2 coat protein value.
system: MS2 coat protein; test: apparent KD of MS2 coat protein; higher = weaker reporter binding; conditions: Eterna round: R107; input ligand: tryptophan 2.4 mM
Please provide the amount together with its unit, number first.

Past entries and their recorded results:
residues	target	result
AGAGUCAGACAAAAGUCUGGCUCAGCCGAAGGAGCGUCCGAAAGGACAGGUAGGUCGCGGUUACAUGAGGAUCACCCAUGUUCCU [ArgAS 7 #OpenEnded]	MS2 coat protein	145 nM
UAAAACAUGAGGAUCACCCAUGUAUUUGAUACCAGAGUGAUGAUCCUCCCUUGGCAGCAAAUAACGCAUUGAUUACAAUGCGAAA [Mat - Same State Theophlline A - Mod of Eli - D28]	MS2 coat protein	36 nM
UGUAUGUGAUCUGAUACCAGUCCAACUGGUAAAAUCUGAGGAUCACCCAGGUAAAAUUGGGACCCUUGGCAGCAGAUCGCAUACU	MS2 coat protein	235 nM
ACUGGAGGUGGAAGGAGCGGGAGACAUGAGCAUCACAUGAGGAUCACCCAUGUAGGAUCAUCCCAGGUAGGUCGCCAUGUCGAAA [rtfemullin]	MS2 coat protein	189 nM
AGCGGCUCGAAAGAGUCGCACUCAUGUGAAGGAGCGCGCGUAAGCGCAGGUAGGUCGCACAUGAGGAUCACCCAUGUACCUUCUA [MAT - Exclusion Arginine A - Mod of Eli - D21]	MS2 coat protein	118 nM

Lab note: measured apparent KD of MS2 coat protein of CUGUACAUCUCGGCCGCCACUGACAUGAGGAUCACCCAUGUAGUACCUGAGAUAGACAUAUCUUACAGGACCGGGAGGUGUGCAG [SSTryp B #31] was 10.6 nM

Query ACAUGAGGAUCACCCAUGUCUGCCACUGAUACCAGCGGAAGCCCACGCCCUUGGCAGCAGAACAUGAGGAUCACCCAUGUAGGCU [Same State Theophylline A GF28] yields apparent KD of MS2 coat protein of 201 nM

The reported apparent KD of MS2 coat protein of the sequence ACAUGAGGAUCACCCAUGUUCCUCUUUGAUACCAGUGAGUUGUUUCGCCCUUGGCAGCGAGUUUUUUUUUUUUUGUUUUGUUUGG [6.R] was 264 nM

apparent KD of MS2 coat protein recorded for this sequence, AUAUGAUCAUAGGAUACCAGAAAUGGUAUUCCUUUAUUUCUUACAUGAGGAUCACCCAUGUUCCCUUGGCAGCUUAUGAUCAUAU [ETHB #4] , is 107 nM

For this sequence ( UCUACAUGAGGAUCACCCAUGUGCCAUGAUACCAGACAUGAAAAUGUCCCUUGGCAGCGUGGGUAGCGCAUCCGAAAGGAUGCGC [#08 SameState-TheophyllineA] ), measured apparent KD of MS2 coat protein is 20.5 nM

Note to self: apparent KD of MS2 coat protein recorded for UCGUGUAUAUCGGAUACCAGUGAAAUCGAUACAUGAGGAUCACCCAUGUGAGUUGAUGUACACCCUUGGCAGCUGUAUAUAUCUA [snbullin] was 15.3 nM

Documented apparent KD of MS2 coat protein of UCCACACAUGAGGAUCACCCAUGUUGAGAUACCAGUAAACCAAAAUACCCUUGGCAGCUCCUACGCUCUUACAGCGGGAAUAUCC [theeternabot_sameState_MS2_Theo_A_46] : 14.9 nM
